B1: DLC1 (parent)
chain: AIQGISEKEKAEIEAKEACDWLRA

Variants of: B1
Test Name: protein stability index of a GFP-peptide fusion (GPS, HEK-293T) (PSI 1-6); higher = more stable;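 also: lentivirally expressed fusions sorted by FACS into six bins by GFP to DsRed ratio, PSI derived from sequencing read proportions per bin multiplied by bin number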
Measurement Parameters: c terminus: a fixed tail appended
# protein stability index annotations
Readout Kind: protein stability index

variant_designation=K16I readout_kind="protein stability index" numeric_readout=4.16
variant_designation=W21E readout_kind="protein stability index" numeric_readout=5.01
variant_designation=D20I readout_kind="protein stability index" numeric_readout=3.35
variant_designation=D20M readout_kind="protein stability index" numeric_readout=3.63
variant_designation=L22R readout_kind="protein stability index" numeric_readout=4.5
variant_designation=K10L readout_kind="protein stability index" numeric_readout=4.08
variant_designation=A11G readout_kind="protein stability index" numeric_readout=4.56
variant_designation=A24K readout_kind="protein stability index" numeric_readout=4
variant_designation=I13L readout_kind="protein stability index" numeric_readout=4.21
variant_designation=E17N readout_kind="protein stability index" numeric_readout=3.63
variant_designation=E7Y readout_kind="protein stability index" numeric_readout=3.63
variant_designation=S6T readout_kind="protein stability index" numeric_readout=4.73
variant_designation=A15P readout_kind="protein stability index" numeric_readout=4.51
variant_designation=D20W readout_kind="protein stability index" numeric_readout=3.98
variant_designation=G4N readout_kind="protein stability index" numeric_readout=3.67
variant_designation=A15C readout_kind="protein stability index" numeric_readout=4.29
variant_designation=A15H readout_kind="protein stability index" numeric_readout=4.33
variant_designation=G4C readout_kind="protein stability index" numeric_readout=4.32
variant_designation=E14Q readout_kind="protein stability index" numeric_readout=4.36
variant_designation=D20C readout_kind="protein stability index" numeric_readout=3.21
variant_designation=E14K readout_kind="protein stability index" numeric_readout=3.5
variant_designation=I5D readout_kind="protein stability index" numeric_readout=5.19
variant_designation=A24Q readout_kind="protein stability index" numeric_readout=4.67
variant_designation=L22T readout_kind="protein stability index" numeric_readout=4.82
variant_designation=Q3P readout_kind="protein stability index" numeric_readout=4.19
variant_designation=A15S readout_kind="protein stability index" numeric_readout=4.81
variant_designation=I13V readout_kind="protein stability index" numeric_readout=4.64
variant_designation=I2C readout_kind="protein stability index" numeric_readout=4.88
variant_designation=K8G readout_kind="protein stability index" numeric_readout=4.6
variant_designation=G4S readout_kind="protein stability index" numeric_readout=4.45
variant_designation=A24W readout_kind="protein stability index" numeric_readout=3.7
variant_designation=C19T readout_kind="protein stability index" numeric_readout=5.12
variant_designation=S6D readout_kind="protein stability index" numeric_readout=4.84
variant_designation=S6E readout_kind="protein stability index" numeric_readout=4.99
variant_designation=K8D readout_kind="protein stability index" numeric_readout=4.61
variant_designation=R23P readout_kind="protein stability index" numeric_readout=4.7
variant_designation=E14L readout_kind="protein stability index" numeric_readout=3.87
variant_designation=I2N readout_kind="protein stability index" numeric_readout=5.13
variant_designation=A11K readout_kind="protein stability index" numeric_readout=4.47
variant_designation=G4D readout_kind="protein stability index" numeric_readout=4.79
variant_designation=A18R readout_kind="protein stability index" numeric_readout=4.56
variant_designation=E12Q readout_kind="protein stability index" numeric_readout=4.18
variant_designation=S6H readout_kind="protein stability index" numeric_readout=4.28
variant_designation=D20S readout_kind="protein stability index" numeric_readout=4.28
variant_designation=A1F readout_kind="protein stability index" numeric_readout=3.18
variant_designation=D20P readout_kind="protein stability index" numeric_readout=3.56
